# Test system: PXR homodimer (NR concentration 270 nM)
# PROCEDURE TEXT: PBM binding z-score (relative to random genomic background probes); higher = stronger binding; sequences stand for … in GC…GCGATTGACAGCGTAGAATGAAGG
Please go through the items and note down their PBM binding z-score.

State the recorded PBM binding z-score for this entry: ATCGAAAGGTTGTGAGGTGAGTATACAGAAAGGC
0.498

Next sequence up: AGTCAAAGTTCAGGACGAGTTAACGTAAAGCACG
1.43

Another sequence: TCTCGGTGGACACGAAGGTCAGAGCTTTCCAGAG
-0.107

Next record, please: AGAATGAGTTTAAGATCAGGGAAACAGAATACAT
0.729

Field entry: CCACCAAGGTGAACAAGGTCGTTGATTACTATTC
2.75

Check ACTTACGGGTCAACGAGGTTATTGCACGCGTATA too.
5.35

---

# System: THRa:RXRa (NR concentration 90 nM, RXRa partner concentration 90 nM)
# PROCEDURE TEXT: PBM binding z-score (relative to random genomic background probes); higher = stronger binding; sequences stand for … in GC…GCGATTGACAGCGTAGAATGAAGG
Returns the class for an entry based on its PBM binding z-score. Class ranges: bottom (below 1), middle (1 to below 2), top (2 or more)

Bin this entry: CCTCGGAGGACAACAGGAGGTGAGAGCTGCCAGA
middle

Also check ACAGACAGGTGAGTGAAGGCAACTCAGCTGGACG
bottom

// repeat for ATACGTAGGTTAGCTGGGGTCATTCAGACTAGGC and report
top

Okay, and TCTCGGAGGACACGAAAGGTCAGAGCGCGACATC ?
top

Ok, now AGTCAAAGTTCACTAGTTAACGTAAGATTCAGCT
middle

Now this one: AGTCAAAGTTCAGGACGATGTAACGTAAAGCACG
middle

TCATATAGGTAATACAGGTGAAAGTTGGCATCTA ?
middle

Would you kindly repeat that for TCATATGGGTAAAAGGTGAAAGTCGGTGTGGTAA ?
middle

Another: TCACACAGGTGAAGGTAACTCAGGTACGCAGTCG
middle

Consider next the sequence TCATATAGGTAAAATGTGAAAGTCGGTGTGGTAA in the same way.
bottom

Also TCTCGAAGGACACGAAAGGTCAGAGCTCGACATC ?
top

Ok, now ATCTCTAGGTAACCAAGCTCAGTGAATGCCGAAC
bottom

---

# Test system: THRa:RXRa (NR concentration 90 nM, RXRa partner concentration 90 nM)
# PROCEDURE TEXT: PBM binding z-score (relative to random genomic background probes); higher = stronger binding; sequences stand for … in GC…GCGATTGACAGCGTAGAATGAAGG
Param threshold (2) applies to PBM binding z-score; output true (1) when value >= threshold, false (0) when value < threshold.

Is PBM binding z-score at least 2? Consider GCGACTGGGGCAAAGTAGGTTACCATAAGGTTGG
true (1)

What about TATCCTAGGTCATTGGGCCAGTATAGTACGCATC ?
true (1)

Another sequence: ACTCGGAGGACAAAGGTCTGAGCTACGCCAGTGA
false (0)

Repeat for the following sequence: TCCTATAGGTAAAGGTGAAAGTCGAACGATATGA
false (0)

// repeat for CGTCCAAGGTCAAAGGTGAGTGAAGAGATGACGG and report
true (1)

Next sequence: CCAACTAGGTCAAAGGTCAAAGTCGAGCCAACCA
true (1)

Check TATACAGGGTCAAAGGCCAGAGAACGAATGTCGA too.
true (1)

Item: TGAATGAGGTTATAAGATCGGGGAACGTTGCAAA
false (0)

Another: CTTCCAAGGTCAATGCTAGGTCAGTGAAAGCATT
true (1)

Another sequence: CCTATTAGTTGAGCATAAGGGCAACCGAAGCTCG
false (0)

And then GCTCGGAGGACAAGGTCAGAGCCTTGTCCGTAGA , what is it?
true (1)
